Tested on: up to 32 different microorganisms
Assay: in vitro antibacterial activity (MIC), agar dilution on Brain Heart Infusion (BHI) agar with Steers replicator
Type: cell-based
Settings: Staphylococcus aureus CMX 642A (code DD); unit assumed
Method: Representative compounds of the present invention were assayed in vitro for antibacterial activity as follows: Twelve petri dishes containing successive aqueous dilutions of the test compound mixed with 10 mL of sterilized Brain Heart Infusion (BHI) agar (Difco 0148-01-5) were prepared. Each plate was inoculated with 1:100 (or 1:10 for slow-growing strains, such as Micrococcus and Streptococcus) dilutions of up to 32 different microorganisms, using a Steers replicator block. […]
Endpoint: MIC (µg/mL)
Numbers only, in µg/mL.

Some entries whose results are on file:
CCC1OC(=O)C(C)C(=O)C(C)C(OC2OC(C)CC(N(C)C)C2O)C(C)(OCC=Cc2cnc3ccc([N+](=O)[O-])cc3c2)CC(C)C(=O)C(C)C2NC(=O)OC12C (stereo not drawn) : 0.05
CCC1OC(=O)C(C)C(=O)C(C)C(OC2OC(C)CC(N(C)C)C2O)C(C)(OCC=Cc2cccc3ncccc23)CC(C)C(=O)C(C)C2NC(=O)OC12C (stereo not drawn) : 0.1

# ---- query compound ----
For CCC1OC(=O)C(C)C(=O)C(C)C(OC2OC(C)CC(N(C)C)C2O)C(C)(OCC=Cc2cccnc2)CC(C)C(=O)C(C)C2NC(=O)OC12C (stereo not drawn) , what is its reported MIC?
0.1
